Here, each record is paired with measured relative viability data.
test system: EKVX; test: relative viability (nuclei count vs DMSO), 5 days (fraction); higher = more cells survive; conditions: first compound 0.1 µM

{"molecule": "O=c1cc(N2CCOCC2)oc2c(-c3cccc4c3sc3ccccc34)cccc12 + O=C(c1cc(Cc2n[nH]c(=O)c3ccccc23)ccc1F)N1CCN(C(=O)C2CC2)CC1 [Olaparib] (partner 8 µM)", "target or system": "EKVX", "relative viability": 1.03}
{"molecule": "O=c1cc(N2CCOCC2)oc2c(-c3cccc4c3sc3ccccc34)cccc12 + NC(=O)Nc1cc(-c2cccc(F)c2)sc1C(=O)N[C@H]1CCCNC1 [AZD7762] (partner 0.2 µM)", "target or system": "EKVX", "relative viability": 0.445}
{"molecule": "O=c1cc(N2CCOCC2)oc2c(-c3cccc4c3sc3ccccc34)cccc12 + N=C(N)NC(=N)NCCc1ccccc1 [Phenformin] (partner 250 µM)", "target or system": "EKVX", "relative viability": 0.201}
{"molecule": "O=c1cc(N2CCOCC2)oc2c(-c3cccc4c3sc3ccccc34)cccc12 + COc1cc2c(Oc3ccc(NC(=O)C4(C(=O)Nc5ccc(F)cc5)CC4)cc3F)ccnc2cc1OCCCN1CCOCC1 [Foretinib] (partner 0.25 µM)", "target or system": "EKVX", "relative viability": 0.818}
{"molecule": "CCN(CC)CCCCNc1ncc2cc(-c3cc(OC)cc(OC)c3)c(NC(=O)NC(C)(C)C)nc2n1 + C[C@@H](Oc1cc(-c2cnn(C3CCNCC3)c2)cnc1N)c1c(Cl)ccc(F)c1Cl [Crizotinib] (partner 1 µM)", "target or system": "EKVX", "relative viability": 1.04}
